target: Histone acetyltransferase KAT6A (Homo sapiens)
Sequence (Q92794 whole entry): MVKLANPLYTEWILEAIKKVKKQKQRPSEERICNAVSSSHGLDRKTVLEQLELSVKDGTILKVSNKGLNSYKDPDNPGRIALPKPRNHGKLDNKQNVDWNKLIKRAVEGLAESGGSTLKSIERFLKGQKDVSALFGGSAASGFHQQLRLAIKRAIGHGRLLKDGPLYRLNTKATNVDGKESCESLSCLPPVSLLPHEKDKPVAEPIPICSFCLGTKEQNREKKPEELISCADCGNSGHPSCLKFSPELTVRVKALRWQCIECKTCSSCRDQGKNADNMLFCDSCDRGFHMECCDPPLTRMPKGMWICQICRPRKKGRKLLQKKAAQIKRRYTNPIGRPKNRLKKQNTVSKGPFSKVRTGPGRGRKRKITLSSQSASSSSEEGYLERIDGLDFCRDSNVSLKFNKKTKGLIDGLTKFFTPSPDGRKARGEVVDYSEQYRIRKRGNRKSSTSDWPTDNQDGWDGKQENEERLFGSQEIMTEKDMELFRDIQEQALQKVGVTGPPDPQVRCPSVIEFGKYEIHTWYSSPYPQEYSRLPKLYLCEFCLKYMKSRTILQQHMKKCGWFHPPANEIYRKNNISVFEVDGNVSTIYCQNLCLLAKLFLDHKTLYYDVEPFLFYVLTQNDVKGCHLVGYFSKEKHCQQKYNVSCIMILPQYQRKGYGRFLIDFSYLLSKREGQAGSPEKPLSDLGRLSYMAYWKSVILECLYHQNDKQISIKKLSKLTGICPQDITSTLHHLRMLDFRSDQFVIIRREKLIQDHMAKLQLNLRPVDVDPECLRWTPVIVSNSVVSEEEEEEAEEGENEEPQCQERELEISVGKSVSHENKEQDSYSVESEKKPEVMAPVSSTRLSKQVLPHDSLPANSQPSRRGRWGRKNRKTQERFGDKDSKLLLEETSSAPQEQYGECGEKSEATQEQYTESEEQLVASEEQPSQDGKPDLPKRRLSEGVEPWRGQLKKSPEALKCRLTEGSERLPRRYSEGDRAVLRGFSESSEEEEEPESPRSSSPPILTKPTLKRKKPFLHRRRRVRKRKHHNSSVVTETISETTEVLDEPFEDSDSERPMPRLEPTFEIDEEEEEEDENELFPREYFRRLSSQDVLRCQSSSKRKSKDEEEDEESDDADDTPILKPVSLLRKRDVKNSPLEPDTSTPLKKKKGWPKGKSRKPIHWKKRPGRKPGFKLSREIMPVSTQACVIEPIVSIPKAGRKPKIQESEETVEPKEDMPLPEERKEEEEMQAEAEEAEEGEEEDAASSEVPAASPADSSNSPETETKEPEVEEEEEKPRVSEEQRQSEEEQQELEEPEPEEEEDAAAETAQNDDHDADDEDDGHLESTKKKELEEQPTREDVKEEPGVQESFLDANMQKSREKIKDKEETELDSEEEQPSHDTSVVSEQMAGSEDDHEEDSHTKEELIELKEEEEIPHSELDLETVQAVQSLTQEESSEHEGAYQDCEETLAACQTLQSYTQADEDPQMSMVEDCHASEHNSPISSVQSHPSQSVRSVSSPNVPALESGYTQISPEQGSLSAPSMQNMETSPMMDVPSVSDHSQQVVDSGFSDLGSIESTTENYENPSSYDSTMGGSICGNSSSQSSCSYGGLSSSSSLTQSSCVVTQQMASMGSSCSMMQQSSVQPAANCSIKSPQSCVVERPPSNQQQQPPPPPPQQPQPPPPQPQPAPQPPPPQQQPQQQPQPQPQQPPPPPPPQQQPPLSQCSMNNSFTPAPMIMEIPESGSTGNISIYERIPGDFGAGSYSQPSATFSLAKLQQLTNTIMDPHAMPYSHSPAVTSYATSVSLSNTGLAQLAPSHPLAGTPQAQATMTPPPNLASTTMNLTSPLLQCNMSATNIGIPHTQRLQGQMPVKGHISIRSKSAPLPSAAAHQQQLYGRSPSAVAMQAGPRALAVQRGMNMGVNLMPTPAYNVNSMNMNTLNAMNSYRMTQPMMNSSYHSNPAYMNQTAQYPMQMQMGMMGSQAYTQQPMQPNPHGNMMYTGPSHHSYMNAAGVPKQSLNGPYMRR
pIC50: −log10 of the molar value.
assayReadout: pIC50

Determine from records and report pIC50 for COc1ccc(S(=O)(=O)NNC(=O)c2cc(-c3cn(C)cn3)cc(Cl)c2F)nc1 > 5.00
